experiment_summary: Selectivity index, ratio of CC50 for African green monkey Vero cells to MIC for multi drug resistant Enterococcus faecium NCTC 7171
Type: toxicity
condition_context: read-out: Selectivity Index
# selectivity ratio per entry
metric_name: selectivity ratio

INSERT INTO results (smiles_str, metric_name, result_number) VALUES
  ('CC[C@H]1OC(=O)[C@@](C)(F)C(=O)[C@H](C)[C@@H](O[C@@H]2O[C@H](C)C[C@H](N(C)C)[C@H]2O)[C@](C)(OC)C[C@@H](C)C(=O)[C@H](C)[C@H]2N(CCCCn3cc(-c4ccsc4)nn3)C(=O)O[C@]12C', 'selectivity ratio', 270000),
  ('CC[C@H]1OC(=O)[C@@](C)(F)C(=O)[C@H](C)[C@@H](O[C@@H]2O[C@H](C)C[C@H](N(C)C)[C@H]2O)[C@](C)(OC)C[C@@H](C)C(=O)[C@H](C)[C@H]2N(CCCCn3cc(-c4cc(O)cc([N+](=O)[O-])c4)nn3)C(=O)O[C@]12C', 'selectivity ratio', '2e+06');
